- TESTED_ON: HLA-DRB1*01:01 (Homo sapiens, UniProt P01903+P01911, A100R/D57E/F55L/F60I/F76Y/I96L/L162R/M171V/P40L/Q125E/R42F/V115G/Y59C)
- Construct: EBV transformed homozygous cell lines were used as sources of MHC molecules; endogenous in cells; host or cells: EBV transformed homozygous cell lines
- ASSAY_NOTES: HLA class II peptide binding, inhibition of radiolabeled peptide binding to purified MHC
- EXPERIMENTAL_CONDITIONS: ratio of WT IC50 to Cit IC50
Square brackets hold non-standard residues; d marks the D form. Peptide text beside a SMILES is read from it. Cit = NC(=O)NCCC[C@H](N)C(=O)O
DRB1*01:01 binding capacity, WT/cit ratio values, listed per item
TEST_READOUT: DRB1*01:01 binding capacity, WT/cit ratio

COMPOUND	ASSAY_RESULT
CSCC[C@H](NC(=O)[C@H](CCC(=O)O)NC(=O)[C@H](CCC(=O)O)NC(=O)[C@H](CCC(=O)O)NC(=O)[C@H](Cc1ccc(O)cc1)NC(=O)[C@H](CC(C)C)NC(=O)[C@H](CC(=O)O)NC(=O)CNC(=O)[C@H](CC(C)C)NC(=O)[C@H](CCCNC(=N)N)NC(=O)[C@H](CO)NC(=O)[C@H](CCCCN)NC(=O)CNC(=O)[C@@H](N)CCC(N)=O)C(=O)N[C@@H](CCCNC(N)=O)C(=O)O [QGKSRLGDLYEEEMX] (H-QGKSRLGDLYEEEM[Cit]-OH; N-terminus and C-terminus assumed)	0.7
CSCC[C@H](NC(=O)[C@H](CCC(=O)O)NC(=O)[C@H](CCC(=O)O)NC(=O)[C@H](CCC(=O)O)NC(=O)[C@H](Cc1ccc(O)cc1)NC(=O)[C@H](CC(C)C)NC(=O)[C@H](CC(=O)O)NC(=O)CNC(=O)[C@H](CC(C)C)NC(=O)[C@H](CCCNC(N)=O)NC(=O)[C@H](CO)NC(=O)[C@H](CCCCN)NC(=O)CNC(=O)[C@@H](N)CCC(N)=O)C(=O)N[C@@H](CCCNC(=N)N)C(=O)O [QGKSXLGDLYEEEMR] (H-QGKS[Cit]LGDLYEEEMR-OH; N-terminus and C-terminus assumed)	0.7
CC(C)C[C@H](NC(=O)[C@H](C)NC(=O)[C@H](CC(=O)O)NC(=O)[C@H](CC(N)=O)NC(=O)[C@H](CC(N)=O)NC(=O)[C@H](CCCNC(N)=O)NC(=O)[C@H](CC(N)=O)NC(=O)[C@H](C)NC(=O)[C@H](C)N)C(=O)N[C@@H](CCCNC(=N)N)C(=O)N[C@@H](CCC(N)=O)C(=O)N[C@@H](C)C(=O)N[C@@H](CCCCN)C(=O)N[C@@H](CCC(N)=O)C(=O)N[C@@H](CCC(=O)O)C(=O)O [AANXNNDALRQAKQE] (H-AAN[Cit]NNDALRQAKQE-OH; N-terminus and C-terminus assumed)	1.0

----------
- TESTED_ON: HLA-DRB1*01:01 (Homo sapiens, UniProt P01903+P01911, A100R/D57E/F55L/F60I/F76Y/I96L/L162R/M171V/P40L/Q125E/R42F/V115G/Y59C)
- Construct: EBV transformed homozygous cell lines were used as sources of MHC molecules; endogenous in cells; host or cells: EBV transformed homozygous cell lines
- ASSAY_NOTES: HLA class II peptide binding, inhibition of radiolabeled peptide binding to purified MHC
- EXPERIMENTAL_CONDITIONS: citrullinated 15-mer (X); purified MHC, inhibition of radiolabeled peptide binding; dash = IC50 >40,000 nM; read-out: DRB1*01:01 binding capacity, Cit peptide (IC50 nM)
Square brackets hold non-standard residues; d marks the D form. Peptide text beside a SMILES is read from it. Cit = NC(=O)NCCC[C@H](N)C(=O)O
IC50 values, listed per item

COMPOUND	IC50, nM
CSCC[C@H](NC(=O)[C@H](CCCNC(N)=O)NC(=O)[C@H](CCCNC(=N)N)NC(=O)[C@H](Cc1ccc(O)cc1)NC(=O)[C@H](CO)NC(=O)[C@H](CO)NC(=O)[C@H](CO)NC(=O)[C@H](CO)NC(=O)[C@@H](NC(=O)[C@H](CO)NC(=O)[C@H](CCCNC(=N)N)NC(=O)[C@@H](NC(=O)[C@H](CO)NC(=O)[C@@H](N)CCSC)[C@@H](C)O)C(C)C)C(=O)N[C@@H](Cc1ccccc1)C(=O)O [MSTRSVSSSSYRXMF] (H-MSTRSVSSSSYR[Cit]MF-OH)	672
CC[C@H](C)[C@H](NC(=O)[C@H](CCCCN)NC(=O)[C@H](CC(N)=O)NC(=O)[C@H](CCC(N)=O)NC(=O)[C@H](CCC(N)=O)NC(=O)[C@H](CCC(=O)O)NC(=O)[C@H](CC(C)C)NC(=O)[C@H](Cc1ccccc1)NC(=O)[C@H](CCCNC(N)=O)NC(=O)[C@@H](NC(=O)[C@H](CCCCN)NC(=O)[C@H](CC(=O)O)NC(=O)[C@@H](NC(=O)[C@H](Cc1ccc(O)cc1)NC(=O)[C@@H](N)CC(N)=O)[C@@H](C)CC)C(C)C)C(=O)O [NYIDKVXFLEQQNKI] (H-NYIDKV[Cit]FLEQQNKI-OH)	102
